Listed here: items and their measured Kd.
target-under-test: T1, mfNPR1-mFc (monkey)
T1 construct: also called dimeric monkey NPR1
T1 chain: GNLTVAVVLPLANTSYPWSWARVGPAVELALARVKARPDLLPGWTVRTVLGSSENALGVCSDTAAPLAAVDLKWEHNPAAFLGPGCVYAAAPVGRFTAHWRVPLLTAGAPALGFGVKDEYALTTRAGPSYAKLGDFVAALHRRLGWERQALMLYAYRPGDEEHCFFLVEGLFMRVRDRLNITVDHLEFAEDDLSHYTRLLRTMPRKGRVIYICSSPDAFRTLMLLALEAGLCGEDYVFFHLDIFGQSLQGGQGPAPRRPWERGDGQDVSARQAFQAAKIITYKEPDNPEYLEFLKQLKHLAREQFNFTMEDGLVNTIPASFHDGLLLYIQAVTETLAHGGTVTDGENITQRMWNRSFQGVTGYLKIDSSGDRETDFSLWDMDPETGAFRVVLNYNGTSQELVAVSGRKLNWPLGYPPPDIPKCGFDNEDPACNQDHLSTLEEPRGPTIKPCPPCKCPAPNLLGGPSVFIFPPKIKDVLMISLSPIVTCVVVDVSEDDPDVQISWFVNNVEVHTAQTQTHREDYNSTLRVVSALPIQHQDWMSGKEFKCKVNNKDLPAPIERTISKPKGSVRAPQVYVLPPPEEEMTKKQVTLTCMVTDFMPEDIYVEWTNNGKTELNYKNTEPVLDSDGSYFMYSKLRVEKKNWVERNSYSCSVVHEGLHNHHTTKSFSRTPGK
procedure-text: SPR, mAb captured, 25C
For clarity, give the value followed by its unit.

Worked examples, 2 binders total:
>  <binder>
mAb22033 (antibody, human IgG4, V domains shown) VH: QVQLVQSGAEVKKPGASVTVSCKASGYTFTDYYMHWVRQAPGQGLEWMGWIKPNSGGTNSAQRFQGRITMTWDTSISTAYMELSRLRSDDTAVYYCSRGGPVMNYYYYYGMDVWGQGTTVTVSS VL: NIQMTQSPSSLSASVGDRVTITCRASQSIDSYLNWYQQKPGKAPKLLIYVASSLQSGVPSRFSGSGSGKDFTLTISSLQPEDFATYYCQQSYSIPTFGQGTRLEIK

>  <measurement-kind>
Kd

>  <result>
0.938 nM

$$$$
>  <binder>
mAb25479 (antibody, human IgG4, V domains shown) VH: QVQLVQSGAEVKKPGASVKVSCKASGYTFTGYYIHWVRQAPGQGLEWMGWINPNSIGTNYAQKFQGRVTLTRDTSISTAYMELSSLRSDDTAVYYCARGGSSSYYYYYYGMDVWGQGTTVTVSS VL: DIQMTQSPSSLSASVGDRVTITCRASQSIDNYLNWYQQKPGKAPKLLIYVASSLQSGVPSRFSGSGSGTDFTLTISSLQPEDFATYYCQQSYSTPLTFGGGTKVEIK

>  <measurement-kind>
Kd

>  <result>
16.2 nM

$$$$

# ---- query binder ----
Entry mAb25508 (antibody, human IgG4, V domains shown) VH: EVQLVESGGGVVRPGGSLRLSCAASGFNVDDYGMSWVRQIPGKGLEWISGINWNGGRIYYADSMKGRITISRDNAKNSLYLQMNSLRAEDTALYHCVRDQWLVRGLDYWGQGTLVTVSS VL: DIQMTQSPSSLSASVGDRVTITCRASQGIYNYLAWFQQKPGKAPKSLIYAASSLQSGVPSKFSGSGSGTDFTLTISSLQPEDFATYYCQQYNTYPYTFGQGTKLEIK needs its Kd filled in; supply it. 0.116 nM
